Value source: patent US4839465A

# Target or system: SP receptor (rat brain tissue) (Rattus norvegicus)
# Sequence (P14600 whole entry): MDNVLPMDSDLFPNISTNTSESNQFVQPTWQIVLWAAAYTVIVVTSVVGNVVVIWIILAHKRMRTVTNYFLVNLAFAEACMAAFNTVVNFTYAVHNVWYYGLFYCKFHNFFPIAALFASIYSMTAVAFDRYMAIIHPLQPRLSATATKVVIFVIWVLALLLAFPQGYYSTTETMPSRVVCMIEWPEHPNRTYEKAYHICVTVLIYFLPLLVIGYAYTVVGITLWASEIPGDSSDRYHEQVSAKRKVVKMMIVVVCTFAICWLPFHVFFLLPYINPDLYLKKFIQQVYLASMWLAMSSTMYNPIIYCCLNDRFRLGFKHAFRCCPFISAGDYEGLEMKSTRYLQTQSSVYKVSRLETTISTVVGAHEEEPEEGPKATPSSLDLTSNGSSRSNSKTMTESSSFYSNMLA
Where a SMILES comes first, the peptide text is derived from it. [ ]: non-standard residue; d: D form. Tpi = O=C(O)[C@@H]1Cc2c([nH]c3ccccc23)CN1; dTpi = O=C(O)[C@H]1Cc2c([nH]c3ccccc23)CN1
Provide the reported Kd of each item.
Just the number please, in µM, no unit attached.

Query :: Write down the reported Kd of CSCC[C@H](NC(=O)[C@H](CC(C)C)NC(=O)[C@@H](Cc1c[nH]c2ccccc12)NC(=O)[C@H](Cc1ccccc1)NC(=O)[C@@H]1Cc2c([nH]c3ccccc23)CN1)C(N)=O [Example 5, H--Tpi--Phe--trp--Leu--Met--NH2] (H-[Tpi]F[dW]LM-NH2) , test system: SP receptor (rat brain tissue) (Rattus norvegicus).
Result :: 0.059

Query :: What about CC(C)C[C@H](NC(=O)[C@H]1Cc2c([nH]c3ccccc23)CN1C(=O)[C@H](Cc1ccccc1)NC(=O)[C@@H](Cc1c[nH]c2ccccc12)NC(=O)[C@@H]1CCCN1)C(=O)N[C@@H](Cc1ccccc1)C(N)=O [Example 6, H--Pro--trp--Phe--tpi--Leu--Phe--NH2] (H-P[dW]F[dTpi]LF-NH2) ?
Result :: 0.039

Query :: What about CSCC[C@H](NC(=O)[C@H](CC(C)C)NC(=O)[C@@H](Cc1c[nH]c2ccccc12)NC(=O)[C@H](Cc1ccccc1)NC(=O)[C@H]1Cc2c([nH]c3ccccc23)CN1)C(N)=O [Example 4, H--tpi--Phe--trp--Leu--Met--NH2] (H-[dTpi]F[dW]LM-NH2) ?
Result :: 0.042

Query :: What about CC(C)C[C@H](NC(=O)[C@@H](Cc1c[nH]c2ccccc12)NC(=O)[C@H](Cc1ccccc1)NC(=O)[C@@H](Cc1c[nH]c2ccccc12)NC(=O)[C@@H]1CCCN1)C(N)=O [Example 3, H--Pro--trp--Phe--trp--Leu--NH2] (H-P[dW]F[dW]L-NH2) ?
Result :: 0.035

Query :: What about CC(C)C[C@H](NC(=O)[C@@H](Cc1c[nH]c2ccccc12)NC(=O)[C@H](Cc1ccccc1)NC(=O)[C@@H](Cc1c[nH]c2ccccc12)NC(=O)[C@@H]1CCCN1)C(=O)N[C@@H](Cc1ccccc1)C(N)=O [Example 2, H--Pro--trp--Phe--trp--Leu--Phe--NH2] (H-P[dW]F[dW]LF-NH2) ?
Result :: 0.022
